# method.notes: Clearance in rat at 0.5 mg/kg, iv
# Format: ADME, organism-based
# Parameters: dose 0.5 mg/kg, route intravenous
# cond: in vivo

structure.notation | units | clearance
C[C@H](c1nc2ncccc2c(=O)n1-c1ccc(F)cc1)N(CC1CCS(=O)(=O)CC1)C(=O)Cc1ccc(F)c(C(F)(F)F)c1 | mL/min/kg | 35

---

# method.notes: Clearance in mouse at 1 mg/kg, iv
# Assay type: ADME, organism-based
# Design: dose 1 mg/kg, route intravenous
# cond: in vivo

structure.notation | units | clearance
CCS(=O)(=O)CCN(C(=O)Cc1ccc(F)c(C(F)(F)F)c1)[C@H](C)c1nc2ncccc2c(=O)n1-c1ccc(C#N)cc1 | mL/min/kg | 5.83
C[C@H](c1nc2ncccc2c(=O)n1-c1ccc(F)cc1)N(CC1CCS(=O)(=O)CC1)C(=O)Cc1ccc(F)c(C(F)(F)F)c1 | mL/min/kg | 5.67
C[C@H](c1nc2ncccc2c(=O)n1-c1ccc(Cl)cc1)N(CC1CCS(=O)(=O)CC1)C(=O)Cc1ccc(F)c(C(F)(F)F)c1 | mL/min/kg | 2.17
C[C@H](c1nc2ncccc2c(=O)n1-c1ccc(C#N)cc1)N(CC1CCS(=O)(=O)CC1)C(=O)Cc1ccc(F)c(C(F)(F)F)c1 | mL/min/kg | 8.17

---

# method.notes: Apparent oral bioavailability in cynomolgus monkey at 2 mg/kg
# Format: ADME, organism-based, Macaca fascicularis
# cond: in vivo, read-out: Fapp
quantity: bioavailability (%)

structure.notation | quantity | readout.number
CCS(=O)(=O)CCN(C(=O)Cc1ccc(F)c(C(F)(F)F)c1)[C@H](C)c1nc2ncccc2c(=O)n1-c1ccc(C#N)cc1 | bioavailability | 13
C[C@H](c1nc2ncccc2c(=O)n1-c1ccc(F)cc1)N(CC1CCS(=O)(=O)CC1)C(=O)Cc1ccc(F)c(C(F)(F)F)c1 | bioavailability | 51
C[C@H](c1nc2ncccc2c(=O)n1-c1ccc(C#N)cc1)N(CC1CCS(=O)(=O)CC1)C(=O)Cc1ccc(F)c(C(F)(F)F)c1 | bioavailability | 1
C[C@H](c1nc2ncccc2c(=O)n1-c1ccc(Cl)cc1)N(CC1CCS(=O)(=O)CC1)C(=O)Cc1ccc(F)c(C(F)(F)F)c1 | bioavailability | 44
